test: chemical genetic growth profiling, strain panel (AID 1159580);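 also: tested at 20 µM; growth read once vehicle control cultures reached saturation at 30 °C; 1 = growth at the plate median or of vehicle wells; lower values mean less growth of the strain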; conditions: S. cerevisiae deletion strains, growth OD, locus YGL173C, strain kem1, stronger effect = lower value
Hit rate of the full screen: of about 5,500 compounds, about 2,000 (36%) were called active. Another 18% or so got no clear call; they are omitted. This is one part of the list.
Listing: normalized growth of selected molecules
Kindly provide the number alone.

| MOLECULE | normalized growth |
| --- | --- |
| O=c1cccc2n1C[C@H]1CNCC2C1 | 0.998 |
| CCOc1ccc2c(c1)C(C)=CC(C)(C)N2 | 0.98 |
| C#C[C@]1(O)CCC2C3CCc4cc(O)ccc4C3CC[C@@]21C (stereo partly drawn) | 0.904 |

Recorded result, O=C(O)CNCP(=O)(O)O , normalized growth: 1.01

Recorded result, C[C@]12CCC3c4ccc(OS(=O)(=O)O)cc4CCC3C1CCC2=O (stereo partly drawn) , normalized growth: 0.97

Recorded result, Nc1nccs1 , normalized growth: 0.99

Recorded result, O=C(O)P(=O)(O)O , normalized growth: 0.992

Recorded result, CCCN(CCC)CCc1cccc2c1CC(=O)N2 , normalized growth: 0.969
